Readings of pIC50 for the listed compounds
- target-or-system: His-Tagged hOGA (Homo sapiens)
- procedure-summary: Human O-GlcNAcase enzyme inhibition assay
- Type: biochemical
- condition: 20 nM His-Tagged hOGA, 10 μM FL-GlcNAc, pH 6.5, 60 min; read-out: hOGA enzyme inhibition (IC50)
pIC50: −log10 of the molar value.

Some solved entries appear below for comparison.
Which measured pIC50 value corresponds to `CC(=O)Nc1ncc(CN2CCC(c3ccccc3)CC2)o1` ? 5.00 to 6.00

Which measured pIC50 value corresponds to CC(=O)Nc1ncc(CN2CCCC(c3ccccc3)C2)s1 (centres unmarked) ? > 6.70

Which measured pIC50 value corresponds to CC(=O)Nc1ncc(C(C)N2CCC(c3ccccc3)CC2)s1 (centres unmarked) ? 6.00 to 6.70

Continuing:
Which measured pIC50 value corresponds to `CC(=O)Nc1ncc(CN2CCC(Cc3ccc(C(F)(F)F)cc3)CC2)s1` ? > 6.70

Which measured pIC50 value corresponds to CC(c1ccc2c(c1)OCO2)N1CCN(Cc2cnc(N3CCNC(=O)C3)s2)CC1 (centres unmarked) ? 5.00 to 6.00

====

- target-or-system: His-Tagged hOGA (Homo sapiens, UniProt O60502)
- Sequence (O60502 1-916): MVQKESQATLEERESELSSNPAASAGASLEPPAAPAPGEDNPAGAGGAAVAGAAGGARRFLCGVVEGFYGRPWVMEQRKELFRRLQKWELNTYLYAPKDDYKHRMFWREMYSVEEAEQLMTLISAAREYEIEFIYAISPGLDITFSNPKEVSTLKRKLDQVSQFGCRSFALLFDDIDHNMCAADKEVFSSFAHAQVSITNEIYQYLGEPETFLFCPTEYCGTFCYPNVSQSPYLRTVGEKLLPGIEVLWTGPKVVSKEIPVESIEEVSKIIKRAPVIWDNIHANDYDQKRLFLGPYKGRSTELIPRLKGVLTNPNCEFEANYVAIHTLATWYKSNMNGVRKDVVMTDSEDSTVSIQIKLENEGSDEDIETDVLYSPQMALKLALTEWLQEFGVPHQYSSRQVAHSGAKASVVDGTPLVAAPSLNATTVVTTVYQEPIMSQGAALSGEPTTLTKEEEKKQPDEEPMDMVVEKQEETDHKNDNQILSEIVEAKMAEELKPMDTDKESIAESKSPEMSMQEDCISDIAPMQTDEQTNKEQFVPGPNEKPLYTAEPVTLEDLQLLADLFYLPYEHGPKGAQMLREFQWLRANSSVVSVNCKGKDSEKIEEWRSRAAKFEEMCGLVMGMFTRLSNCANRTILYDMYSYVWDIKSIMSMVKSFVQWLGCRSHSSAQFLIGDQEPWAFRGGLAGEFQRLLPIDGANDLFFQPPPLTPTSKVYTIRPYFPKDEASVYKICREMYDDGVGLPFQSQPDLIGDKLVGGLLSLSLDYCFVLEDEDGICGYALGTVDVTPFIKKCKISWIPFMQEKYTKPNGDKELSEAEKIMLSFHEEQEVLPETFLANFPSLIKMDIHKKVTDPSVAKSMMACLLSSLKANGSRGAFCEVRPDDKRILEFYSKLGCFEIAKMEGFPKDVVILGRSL
- procedure-summary: Human O-GlcNAcase enzyme inhibition assay
- Format: biochemical
- condition: 20 nM His-Tagged hOGA, 10 μM FL-GlcNAc, pH 6.5, 60 min; read-out: hOGA enzyme inhibition (IC50)
pIC50: −log10 of the molar value.
Readings of pIC50 for the listed compounds

Some solved entries appear below for comparison.
Which measured pIC50 value corresponds to `CC(=O)Nc1ncc(CN2CCC(O)(c3ccccc3)CC2)s1` ? 5.00 to 6.00

Which measured pIC50 value corresponds to `CCC(=O)Cc1ncc(CN2CCC(c3ccccc3)CC2)s1` ? < 5.00

Which measured pIC50 value corresponds to `CC(=O)Nc1ncc(CN2CCC(c3ccccc3O)CC2)s1` ? 6.00 to 6.70

Which measured pIC50 value corresponds to `CC(=O)Nc1ncc(CN2CCC(C)CC2)s1` ? 5.00 to 6.00

Which measured pIC50 value corresponds to `CC(=O)Nc1ncc(CN2CCC(C(C)C)CC2)s1` ? > 6.70

Which measured pIC50 value corresponds to `COc1ccc(C2CCN(Cc3cnc(NC(C)=O)s3)CC2)cc1` ? > 6.70

Continuing:
Which measured pIC50 value corresponds to CC(=O)Nc1ncc(CN2CCC(Cc3ccccc3)C(F)C2)s1 (single isomer, unassigned) ? > 6.70

Which measured pIC50 value corresponds to `CC(=O)Nc1ncc(CN2CCC(Oc3ccccc3)CC2)s1` ? 6.00 to 6.70

Which measured pIC50 value corresponds to `CC(=O)Nc1ncc(CN2CC(c3ccccc3)C2)s1` ? 6.00 to 6.70

Which measured pIC50 value corresponds to `CC(=O)Nc1ncc(CN2CCCCC2)s1` ? 5.00 to 6.00

Which measured pIC50 value corresponds to CC(=O)Nc1ncc(CN2CCN(C(C)c3ccc4c(c3)OCO4)CC2)s1 (stereo not shown) ? 5.00 to 6.00

Which measured pIC50 value corresponds to `c1ccc(C2CCN(Cc3cnc(NC4CC4)s3)CC2)cc1` ? < 5.00

Which measured pIC50 value corresponds to `CC(=O)Nc1ncc(CNCCCc2ccccc2)s1` ? 6.00 to 6.70

Which measured pIC50 value corresponds to `Cc1ncc(CN2CCC(c3ccccc3)CC2)s1` ? < 5.00

Which measured pIC50 value corresponds to `CC(=O)Nc1ncc(CN2CCN(c3ccccc3)CC2)s1` ? 6.00 to 6.70

Which measured pIC50 value corresponds to `CC(=O)Nc1ncc(CN2CCC(Cc3ccc4ccccc4c3)CC2)s1` ? > 6.70

Which measured pIC50 value corresponds to `CCC(=O)Nc1ncc(CN2CCC(c3ccccc3)CC2)s1` ? 6.00 to 6.70

Which measured pIC50 value corresponds to `CC(=O)Nc1ncc(CN2CCC(c3ccc(O)cc3)CC2)s1` ? > 6.70

Which measured pIC50 value corresponds to `CC(=O)Cc1ncc(CN2CCC(c3ccccc3)CC2)s1` ? < 5.00

Which measured pIC50 value corresponds to `CC(=O)Nc1ncc(CN2CCC(Cc3ccc4c(c3)OCO4)CC2)s1` ? > 6.70

Which measured pIC50 value corresponds to `COc1ccccc1C1CCN(Cc2cnc(NC(C)=O)s2)CC1` ? 6.00 to 6.70

Which measured pIC50 value corresponds to `CC(=O)Nc1ncc(CN2CCC(Cc3cccc(F)c3)CC2)s1` ? > 6.70

Which measured pIC50 value corresponds to `CC(=O)Nc1ncc(CN2CCC(Cc3ccc4nccnc4c3)CC2)s1` ? > 6.70

Which measured pIC50 value corresponds to `COc1cccc(C2CCN(Cc3cnc(NC(C)=O)s3)CC2)c1` ? > 6.70

Which measured pIC50 value corresponds to `CC(=O)Nc1ncc(CN2CCC(c3ccccc3C#N)CC2)s1` ? 5.00 to 6.00

====

- target-or-system: His-Tagged hOGA (Homo sapiens, UniProt O60502)
- Sequence (O60502 1-916): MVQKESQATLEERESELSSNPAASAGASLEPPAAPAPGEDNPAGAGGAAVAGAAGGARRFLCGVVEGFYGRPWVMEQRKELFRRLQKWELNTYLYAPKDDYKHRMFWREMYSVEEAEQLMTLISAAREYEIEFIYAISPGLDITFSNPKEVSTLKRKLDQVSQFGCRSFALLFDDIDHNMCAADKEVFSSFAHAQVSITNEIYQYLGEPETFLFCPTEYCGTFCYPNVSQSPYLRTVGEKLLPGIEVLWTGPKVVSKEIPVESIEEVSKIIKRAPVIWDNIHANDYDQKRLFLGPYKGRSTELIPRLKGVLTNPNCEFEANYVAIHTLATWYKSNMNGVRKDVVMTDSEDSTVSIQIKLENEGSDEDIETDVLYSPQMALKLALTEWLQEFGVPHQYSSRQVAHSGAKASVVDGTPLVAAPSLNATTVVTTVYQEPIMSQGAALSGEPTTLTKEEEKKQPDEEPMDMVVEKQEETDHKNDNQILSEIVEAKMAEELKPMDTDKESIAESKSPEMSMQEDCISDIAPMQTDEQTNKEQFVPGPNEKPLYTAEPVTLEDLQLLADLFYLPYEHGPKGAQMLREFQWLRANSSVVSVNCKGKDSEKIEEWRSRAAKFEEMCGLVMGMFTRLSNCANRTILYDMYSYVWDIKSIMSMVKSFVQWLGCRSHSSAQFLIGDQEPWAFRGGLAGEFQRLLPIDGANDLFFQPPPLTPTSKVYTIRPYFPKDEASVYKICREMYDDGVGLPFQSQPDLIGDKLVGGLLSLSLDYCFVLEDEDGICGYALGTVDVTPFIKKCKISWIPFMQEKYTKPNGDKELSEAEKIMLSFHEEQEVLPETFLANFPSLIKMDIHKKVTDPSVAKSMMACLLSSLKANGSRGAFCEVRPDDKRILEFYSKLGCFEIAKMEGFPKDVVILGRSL
- procedure-summary: Human O-GlcNAcase enzyme inhibition assay
- Assay type: biochemical
- condition: 20 nM His-Tagged hOGA, 10 μM FL-GlcNAc, pH 6.5, 60 min; read-out: hOGA enzyme inhibition (IC50)
metric: IC50

Which measured IC50 value corresponds to CC(=O)Nc1ncc(CN2CCC(Cc3ccc(F)cc3)CC2)s1 [Compound 48] ? < 200 nM

Which measured IC50 value corresponds to CC(=O)Nc1ncc(CN2CCC(c3ccccc3C)CC2)s1 [Compound 43] ? 1000 to 10000 nM

Which measured IC50 value corresponds to CCNc1ncc(CN2CCC(c3ccccc3)CC2)s1 [Compound 5] ? > 10000 nM

Which measured IC50 value corresponds to CC(=O)Nc1ncc(CN2CCC(CCc3ccccc3)CC2)s1 [Compound 62] ? < 200 nM

Which measured IC50 value corresponds to CC(=O)Nc1ncc(CN2CCC(c3ccccc3)CC2)s1 [Compound 1] ? < 200 nM

Continuing:
Which measured IC50 value corresponds to CC(=O)Nc1ncc(CN2CCC(c3ccc(C(=O)O)cc3)CC2)s1 [Compound 45] ? 200 to 1000 nM

Which measured IC50 value corresponds to CC(=O)Nc1ncc(CN2CCC(Cc3ccc(Cl)cc3)CC2)s1 [Compound 46] ? < 200 nM
